Ref: the supplement of paper PMC9170038

- Test system: MS2 coat protein
- assay.notes: apparent KD of MS2 coat protein; designed switch direction (-1 OFF switch, 1 ON switch): -1; higher = weaker reporter binding
- reported.conditions: input ligand: FMN 200 uM
Here the recorded apparent KD of MS2 coat protein is given for each entry.
measurement.label: apparent KD of MS2 coat protein (nM)

# sequence.string, measurement.label, measured.number
records = [
    ("AAACCCUGAGGAUAUACAUAACAACAAAGCCUCACGUGCCAACAUGAGGAUCACCCAUGUAGAAGGCGGGCCAA [Mod R3 Insanara 14 - Jieux - Exclusion 2] (Eterna round: R97, puzzle: Exclusion 2)", "apparent KD of MS2 coat protein", 37.3),
    ("GUCGGGCAAGGAUAUGUAGCACUCUACAUGAGGAUCACCCAUGUGAGCCUGCAUGGUGCGACAGAAGGUGCAAAAG [Enencear] (Eterna round: R97, puzzle: Exclusion 5)", "apparent KD of MS2 coat protein", 330),
    ("UCAUGUCCAGAGGAUAUGUAGAUCGAGAGAUCAACAGAAGGCUGGACAUGAGGAUCACCCAUGUGCGCCUUCAA [jl-ex3-4.29 ViennaUCT mod] (Eterna round: R97, puzzle: Exclusion 6)", "apparent KD of MS2 coat protein", 70.6),
    ("ACAAGCAGAGAGUAAAUGGACAUGAGGAUCACCCAUGUGAGUCCGAAGAGAUAAGAUAUAUUGUCGGCUCGUCUUAU [AK-miRNA-r3-21] (Eterna round: R97, puzzle: Sensor, turn-off variant 1)", "apparent KD of MS2 coat protein", 105),
    ("AAUGUCUGAGGAUAUCGUUUUUUGUACAUGAGGAUCACCCAUGUCCAAUUUUGUAUAUUACGAGAAGGCAGUGGAA [JR_E5_Sub089] (Eterna round: R96, puzzle: Exclusion 5)", "apparent KD of MS2 coat protein", 23.9),
]

---

- Test system: K4 kissing-loop RNA reporter
- assay.notes: apparent KD of K4 kissing-loop reporter; higher = weaker reporter binding
- reported.conditions: Eterna round: R107; input ligand: FMN 200 uM
Returns one of Met or Not met; Met when apparent KD of K4 kissing-loop reporter is >= 200 nM.

# sequence.string, tgt, class.assignment
rows = [
    ("UGUGGAGAAUAUGAUACCAGCAGUGAGAGAGAGGAAGUAUAGUGAUGUUAUAUGAGAGAAUGCCCUUGGCAGCAUAAGAAGAAGG [SSTheophylB.D]", "K4 kissing-loop RNA reporter", "Met"),
    ("GAAUGGAGUGAUGUUCCAUUAACGAUCCUACGAGGACCGGUACGGCCGCCACUCGUAUUGCAGUGAUGUUGCAACCAGCCGUACU [Exclusion Tryptophan A GF 9]", "K4 kissing-loop RNA reporter", "Not met"),
    ("GGGAAUUACGGAGGAUAUGCACUGAGGAGGAGAAUAUAGUGAUGUUAUAUAAGAGGAAGGAGAAGAGUAGAAGGCCGUGGAAAGG [SSFMNB.D]", "K4 kissing-loop RNA reporter", "Met"),
    ("UCUUUAGUAUAUGAUACCAGCAGUGAGAGACAGGAAGUAUAGUGAUGUUAUAUGAGAGAAUGCCCUUGGCAGCGUGUGCGGUGGG [SSTheophylB.T]", "K4 kissing-loop RNA reporter", "Not met"),
    ("GAUCUGAACGAAAGUUCGGAUCAGUCCGAUACCAGUAUGGAUUCAUACCCUUGGCAGCGGAAAUCUGCUAUGGAGUGAUGUUCCA [Theophylline A K4 14]", "K4 kissing-loop RNA reporter", "Met"),
    ("AGACUACCACACUGUCAAUAGACAGUGUACUAGGAUAUGCUGAUAAGCAGAAGGAGUGAUGUUCCUCGGUAGUCAAUAAAAUAAU [FmnAX 13 U28+C67]", "K4 kissing-loop RNA reporter", "Met"),
]

---

- System: K4 kissing-loop RNA reporter;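 note: bound reporter read as fluorescence of individual clusters on recovered sequencing chips by microscopy, with normalized cluster intensities fitted with a binding model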
- assay.notes: apparent KD of K4 kissing-loop reporter; higher = weaker reporter binding
- reported.conditions: Eterna round: R107; input ligand: none
Here the recorded apparent KD of K4 kissing-loop reporter is given for each entry.
measurement.label: apparent KD of K4 kissing-loop reporter (nM)

# sequence.string, measured.number
measured = [
    ("UGUACCGAGUCAGGAUAUGGCGUCGAAAGACGAAUCGUAGUGAUGUUACGGAUCUGCGAAAGCAGUCCAGAAGGGACUUGGUACU [FmnBS 26 G37+C49]", 163),
    ("AAGCGUGUGGCGGCCGCCACUAGUCUCCAGUGAUGUUGGAGAUAUCACGUAAGUGAUAUCCGACAUAGGACCGGGCCAUAUGGAA [Same State - Tryptophan B (Freestyle 22)]", 813),
    ("GGACCACCAGUGAUGUUGGAGAUAAACUCCAAGGAUAUGACGAAAGUCAGAAGGUGGUAAUAAGACGUCAAAGACGUCAGGUCCA [FmnA 20 #SwitchBubble #K4Early]", 187),
    ("GGAUAGGAUAGAGGAUAUGGACUAGGCAAGAAUAACUUGUCUAGUAAAUCCAUGAGGAGUGAUGUUCCAGAAGGCUGUCCUAUCG [MatMod 3 - Jieux - Exclusion - FMN B]", 226),
    ("UGAUAAAGCAGUGAUGUUGCAAGUAAUGAUACCAGUUAAGAAGAGAACCCUUGGCAGCAUAAAGUGCGCUCUAAUGAGUGUGCUU [whbob_SS_Theo_A_w51]", 103),
    ("GUGGAAUUAUGAAAGUGGUUUUAUUAGGAAGGAGCGGCCGAAAGGCCAGGUAGGUCGCCUAUUGACAGUGAUGUUGUUAUAUGGU [#14]", 151),
    ("UGGAUAUAGUGAUGUUAUAUAGAGAUGGAUACCAGCGAAGAGAAUUGCCCUUGGCAGCCGAAAGCAGUAUCAUUAGAGAAGAAUG [#19 K4 Theophylline A Exclusion]", 271),
    ("UACUUUAAUUUAUAACUAUCUUUAUUUUGUCAGGAUAUCGUAUUGUCGAGAAGGGACUCUCUCAAGUGAUGUUUGAGAAAUCGUU [JR_SSFMNA_Sub024]", 115),
    ("AAAAGCCAGCAAGGAUAUACGCGCGAAGCAUCCAUGGUGCCAGUUCCAGUGAUGUUGGACCACAUCGUAGAAGGUGCGCGGCUCA [theeternabot_sameState_KL_FMN_B_33]", 266),
    ("UGUGGAGAAUAUGAUACCAGCAGUGAGAGAGAGGAAGUAUAGUGAUGUUAUAUGAGAGAAUGCCCUUGGCAGCAUAAGAAGAAGG [SSTheophylB.D]", 170),
    ("AAUAGGGAGUGAUGUUCCCUCACUUAUGAUACCAGUGCCAUCGGACACCCUUGGCAGCAUACGGGCAGUGAUGUUGUUCUUGGAA [Exclusion Theophylline A GF 25]", 156),
    ("UAGUUGCCGGUUUGUAGGCUUCGGCAGUGGGAGGAUAUGUUGACCGACAGAAGGCCCAGUGAUGUUGGGCGAUUGGCGGUGAGAU [Antebear]", 145),
    ("UGACUGGAUGGAAGGAGCGCUAAACUCCUAGUGAUGUUAGGGAAAUGAGACAAAGUCUCAAGGCAGGUAGGUCGCCAUCUAGUCU [FiskerMod 16 - Jieux - Same State - Arginine B]", 174),
    ("GGGAAUUACGGAGGAUAUGCACUGAGGAGGAGAAUAUAGUGAUGUUAUAUAAGAGGAAGGAGAAGAGUAGAAGGCCGUGGAAAGG [SSFMNB.D]", 203),
    ("UGGAGUUGACGAAAAGUCAACUCCCGAGAAGGAGCGGACGAAAGUCCAGGUAGGUCGCUCGCUACCAGUGAUGUUGGUACUCAAA", 156),
    ("GCAGGACGAGGAGGAGGAUGAAUUACUGAAGGAGCGCAUAUUUUUGCAGGUAGGUCGCGGUAAACAAGUAUAGUGAUGUUAUAUC [SSArgA.N]", 372),
    ("AAGACUUGCAUCGAUACCAGCCCAGUGAUGUUGGGCUGCUCUCCAUGGGUGCCAGACACGGGCCCUUGGCAGCGAGGUAAGGCCC [Soveri]", 113),
    ("GCCGUAGAUCGAAGGAGCGUGUCCAAACCUCAUUCAUGUACACACGAGUGAUGUUCGUGUACACAGGUAGGUCGCGAUCUACGGC [#04 K4 Arginine B Exclusion]", 331),
    ("AUUCGUCUCUGAGGAUAUCAGAGGAGAGUGAUGUUCUCCCAUAGCCCAGUGAUGUUGGAUGCUAUCUGAGAAGGCAGUGGGCGAA [Same State FMN B GF 14]", 213),
    ("AUAUCGGUUGAGAGUGAUGUUCCUUGUGUUCGAGGACCGGUACGGCCGCCACUCGGGUAGAAAAUAAAAGAUGUGUUUGAUUUUU [BDazzled - #14 SS Tryptophan A]", 203),
    ("GUACCAGUGAUGUUGGUAGGCGAGCGGGAUACCAGCCAAGACUCAGGCCCUUGGCAGCCCACAUAUCCCACGUAGGUAGUAGCUC [Same State - Theophylline A (Freestyle 17)]", 105),
    ("UUCUUGAUGGAAACAUCGAGGAUUACUGAUACCAGUAUCGAUAGAUACCCUUGGCAGCAGAAUCAGUAAUCACGAGUGAUGUUCG [Ex Theophylline A K4 6]", 841),
    ("UGUAUGUGAUUUGAUACCAGACCAGCUGGUGGAAUCUGAGUGAUGUUCAGGUAGGUUUGGGUCCCUUGGCAGCAAAUCGCAUACU [KL-SSTheoB27]", 182),
]
